# System: MCF7 cells
# Test Summary: MCF7 cell activity test (CCK8 proliferation inhibition)
# Type: cell-based
# Assay Conditions: Homo sapiens, MCF7, 144 h, 6 days incubation
As shown below, each of these compounds has a reported IC50 value.

[
  {
    "Compound": "Cn1nc(C2CCC(=O)NC2=O)c2ccc(N3CCN(C[C@@H]4CCCC[C@H]4CN4CCN(c5ccc([C@@H]6c7ccc(O)cc7CC[C@@H]6c6ccccc6)cc5)CC4)CC3)cc21 (some centres unmarked) [IV-3]",
    "Test System": "MCF7 cells",
    "IC50": "< 25 nM"
  },
  {
    "Compound": "Cn1nc(N2CCC(=O)NC2=O)c2cc(F)c(N3CC4(CN(C[C@@H]5CCCC[C@H]5CN5CCN(c6ccc([C@@H]7c8ccc(O)cc8CC[C@@H]7c7ccccc7)cc6)CC5)C4)C3)cc21 [VI-26]",
    "Test System": "MCF7 cells",
    "IC50": "< 50 nM"
  },
  {
    "Compound": "O=C1CCC(NC(=O)c2ccc(N3CCN(C[C@@H]4CCCC[C@H]4CN4CCN(c5ccc([C@@H]6c7ccc(O)cc7CC[C@@H]6c6ccccc6)cc5)CC4)CC3)cn2)C(=O)N1 (some centres unmarked) [III-1]",
    "Test System": "MCF7 cells",
    "IC50": "< 25 nM"
  }
]

Inquiry: Consider the compound shown here: C[C@H]1CC(O)(c2cc3c(cc2F)c(N2CCC(=O)NC2=O)nn3C)CCN1C[C@@H]1CCCC[C@H]1CN1CCN(c2ccc([C@@H]3c4ccc(O)cc4CC[C@@H]3c3ccccc3)cc2)CC1 (some centres unmarked) [VI-30] What is its recorded IC50?
Reply text: < 50 nM

Inquiry: Consider the compound shown here: Cn1nc(N2CCC(=O)NC2=O)c2cc(F)c(N3CC4(CCN(C[C@@H]5CCCC[C@H]5CN5CCN(c6ccc([C@@H]7c8ccc(O)cc8CC[C@@H]7c7ccccc7)cc6)CC5)CC4)C3)cc21 [VI-27] What is its recorded IC50?
Reply text: < 25 nM

###

As shown below, each of these compounds has a reported IC50 value.
# Tested on: MCF7 cells
# Test Summary: MCF7 cell activity test (CCK8 proliferation inhibition)
# Format: cell-based
# Assay Conditions: Homo sapiens, MCF7, 144 h, 6 days incubation

[
  {
    "Compound": "C[C@H]1CC(c2cc3c(cc2F)c(N2CCC(=O)NC2=O)nn3C)CCN1C[C@@H]1CCCC[C@H]1CN1CCN(c2ccc([C@@H]3c4ccc(O)cc4CC[C@@H]3c3ccccc3)cc2)CC1 (some centres unmarked) [VI-21]",
    "IC50": "< 50 nM"
  },
  {
    "Compound": "O=C1CCC(n2cnc3cc(C4CCN(C[C@@H]5CCCC[C@H]5CN5CCN(c6ccc([C@@H]7c8ccc(O)cc8CC[C@@H]7c7ccccc7)cc6)CC5)CC4)c(F)cc32)C(=O)N1 (some centres unmarked) [Compound V-5]",
    "IC50": "< 100 nM"
  },
  {
    "Compound": "Cn1nc(C2CCC(=O)NC2=O)c2cc(F)c(N3CCN(C[C@@H]4CCCC[C@H]4CN4CCN(c5ccc([C@@H]6c7ccc(O)cc7CC[C@@H]6c6ccccc6)cc5)CC4)CC3)cc21 (some centres unmarked) [IV-1]",
    "IC50": "< 50 nM"
  },
  {
    "Compound": "Cn1nc(N2CCC(=O)NC2=O)c2cc(F)c(C3(O)CCN(C[C@@H]4CCCC[C@H]4CN4CCN(c5ccc([C@@H]6c7ccc(O)cc7CC[C@@H]6c6ccccc6)cc5)CC4)CC3)cc21 [VI-23]",
    "IC50": "< 25 nM"
  },
  {
    "Compound": "C[C@@H]1CC(c2cc3c(cc2F)c(N2CCC(=O)NC2=O)nn3C)CCN1C[C@@H]1CCCC[C@H]1CN1CCN(c2ccc([C@@H]3c4ccc(O)cc4CC[C@@H]3c3ccccc3)cc2)CC1 (some centres unmarked) [VI-20]",
    "IC50": "< 25 nM"
  },
  {
    "Compound": "Cn1nc(N2CCC(=O)NC2=O)c2cc(F)c(C3CCN(C[C@H]4CCCC[C@@H]4CN4CCN(c5ccc([C@@H]6c7ccc(O)cc7CC[C@@H]6c6ccccc6)cc5)CC4)CC3(F)F)cc21 (stereo in doubt) [IV-12]",
    "IC50": "< 100 nM"
  },
  {
    "Compound": "Cn1nc(C2CCC(=O)NC2=O)c2ccc(N3CCN(C[C@H]4CCCC[C@@H]4CN4CCN(c5ccc([C@@H]6c7ccc(O)cc7CC[C@@H]6c6ccccc6)cc5)CC4)CC3)cc21 (some centres unmarked) [IV-4]",
    "IC50": "< 100 nM"
  },
  {
    "Compound": "Cn1c(=O)n(C2CCC(=O)NC2=O)c2cccc(N3CCN(C[C@@H]4CCCC[C@H]4CN4CCN(c5ccc([C@@H]6c7ccc(O)cc7CC[C@@H]6c6ccccc6)cc5)CC4)CC3)c21 (some centres unmarked) [VII-1]",
    "IC50": "< 50 nM"
  },
  {
    "Compound": "Cn1nc(N2CCC(=O)NC2=O)c2cc(F)c(C3CCC(N(C[C@@H]4CCCC[C@H]4CN4CCN(c5ccc([C@@H]6c7ccc(O)cc7CC[C@@H]6c6ccccc6)cc5)CC4)C4CC4)CC3)cc21 (some centres unmarked) [VI-25]",
    "IC50": "< 100 nM"
  },
  {
    "Compound": "O=C1CCC(n2ncc3cc(N4CCN(C[C@@H]5CCCC[C@H]5CN5CCN(c6ccc([C@@H]7c8ccc(O)cc8CC[C@@H]7c7ccccc7)cc6)CC5)CC4)c(F)cc32)C(=O)N1 (some centres unmarked) [VI-5]",
    "IC50": "< 50 nM"
  }
]

Inquiry: Consider the compound shown here: COC1(c2cc3c(cc2F)c(N2CCC(=O)NC2=O)nn3C)CCN(C[C@@H]2CCCC[C@H]2CN2CCN(c3ccc([C@@H]4c5ccc(O)cc5CC[C@@H]4c4ccccc4)cc3)CC2)CC1 [VI-28] What is its recorded IC50?
Reply text: < 25 nM

Inquiry: Consider the compound shown here: Cc1nn(C2CCC(=O)NC2=O)c2ccc(C3CCN(C[C@@H]4CCCC[C@H]4CN4CCN(c5ccc([C@@H]6c7ccc(O)cc7CC[C@@H]6c6ccccc6)cc5)CC4)CC3)cc12 (some centres unmarked) [VI-8] What is its recorded IC50?
Reply text: < 50 nM

Inquiry: Consider the compound shown here: O=C1CCC(n2cnc3cc(C4CCN(C[C@@H]5CCCC[C@H]5CN5CCN(c6ccc([C@@H]7c8ccc(O)cc8CC[C@@H]7c7ccccc7)cc6)CC5)CC4)ccc32)C(=O)N1 (some centres unmarked) [Compound V-7] What is its recorded IC50?
Reply text: < 100 nM

Inquiry: Consider the compound shown here: O=C1CCC(NC(=O)c2ccc(C3CCN(C[C@@H]4CCCC[C@H]4CN4CCN(c5ccc([C@@H]6c7ccc(O)cc7CC[C@@H]6c6ccccc6)cc5)CC4)CC3)cn2)C(=O)N1 (some centres unmarked) [III-3] What is its recorded IC50?
Reply text: < 100 nM

Inquiry: Consider the compound shown here: O=C1CCC(n2cnc3cc(N4CCN(C[C@@H]5CCCC[C@H]5CN5CCN(c6ccc([C@@H]7c8ccc(O)cc8CC[C@@H]7c7ccccc7)cc6)CC5)CC4)ccc32)C(=O)N1 (some centres unmarked) [Compound V-3] What is its recorded IC50?
Reply text: < 50 nM

Inquiry: Consider the compound shown here: Cn1c(=O)n(C2CCC(=O)NC2=O)c2cccc(C3CCN(C[C@@H]4CCCC[C@H]4CN4CCN(c5ccc([C@@H]6c7ccc(O)cc7CC[C@@H]6c6ccccc6)cc5)CC4)CC3)c21 (some centres unmarked) [VII-3] What is its recorded IC50?
Reply text: < 100 nM

Inquiry: Consider the compound shown here: O=C1CCC(n2cnc3cc(N4CCN(C[C@@H]5CCCC[C@H]5CN5CCN(c6ccc([C@@H]7c8ccc(O)cc8CC[C@@H]7c7ccccc7)cc6)CC5)CC4)c(F)cc32)C(=O)N1 (some centres unmarked) [Compound V-2] What is its recorded IC50?
Reply text: < 50 nM

Inquiry: Consider the compound shown here: O=C1CCC(NC(=O)c2ccc(N3CCN(C[C@H]4CCCC[C@@H]4CN4CCN(c5ccc([C@@H]6c7ccc(O)cc7CC[C@@H]6c6ccccc6)cc5)CC4)CC3)cn2)C(=O)N1 (some centres unmarked) [III-2] What is its recorded IC50?
Reply text: < 100 nM

Inquiry: Consider the compound shown here: O=C1CCC(NC(=O)c2ccc(C3CCN(C[C@@H]4CCCC[C@H]4CN4CCN(c5ccc([C@@H]6c7ccc(O)cc7CC[C@@H]6c6ccccc6)cc5)CC4)CC3)cc2F)C(=O)N1 (some centres unmarked) [Compound I-67] What is its recorded IC50?
Reply text: < 100 nM

Inquiry: Consider the compound shown here: Cn1nc(N2CCC(=O)NC2=O)c2cc(F)c(C3CCN(C4CCN(C[C@@H]5CCCC[C@H]5CN5CCN(c6ccc([C@@H]7c8ccc(O)cc8CC[C@@H]7c7ccccc7)cc6)CC5)CC4)CC3)cc21 [VI-19] What is its recorded IC50?
Reply text: < 50 nM

Ref: patent US20260364185A1
